Molecular target: UniProt Q8IFN9
Assay: IC50 for competition of protein binding to Kinobeads;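 note: native unpurified kinases from lysate captured on beads bearing immobilized kinase inhibitors, with bead-bound kinases quantified by mass spectrometry across compound doses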
Details: assay detail: Kinobeads competition in P. falciparum blood-stage lysate
recorded.metric: IC50

compound	recorded.metric	test.result
O=c1[nH]c2ccc(Cl)cc2c(NC2CN3CCC2CC3)c1-c1nc2ccccc2[nH]1 (stereo unspecified) [CHIR-124]	IC50	> 20 µM

---

Biological target: UniProt Q8IHZ9
Sequence (Q8IHZ9 whole entry): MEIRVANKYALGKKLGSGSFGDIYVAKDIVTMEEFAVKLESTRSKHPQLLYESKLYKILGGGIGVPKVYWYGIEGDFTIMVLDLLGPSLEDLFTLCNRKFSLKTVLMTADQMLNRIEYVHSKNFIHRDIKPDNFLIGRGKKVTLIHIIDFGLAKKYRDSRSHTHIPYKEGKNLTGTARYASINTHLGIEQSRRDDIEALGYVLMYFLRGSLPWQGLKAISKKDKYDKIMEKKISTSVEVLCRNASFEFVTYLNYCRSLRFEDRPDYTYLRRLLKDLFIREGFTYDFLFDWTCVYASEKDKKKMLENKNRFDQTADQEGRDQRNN
Assay: IC50 for competition of protein binding to Kinobeads
Conditions: assay detail: Kinobeads competition in P. falciparum blood-stage lysate
pIC50: −log10 of the molar value.

compound	pIC50
O=c1[nH]c2ccc(Cl)cc2c(NC2CN3CCC2CC3)c1-c1nc2ccccc2[nH]1 (stereo unspecified)	< 4.70

---

Molecular target: UniProt Q8IIM4
Test: IC50 for competition of protein binding to Kinobeads
Settings: assay detail: Kinobeads competition in P. falciparum blood-stage lysate

molecule	IC50
O=c1[nH]c2ccc(Cl)cc2c(NC2CN3CCC2CC3)c1-c1nc2ccccc2[nH]1 (stereo unspecified)	> 20 µM

---

Target: UniProt Q8IL53
Assay: IC50 for competition of protein binding to Kinobeads
Conditions: assay detail: Kinobeads competition in P. falciparum blood-stage lysate
pIC50: −log10 of the molar value.
recorded.metric: pIC50

compound	test.result
O=c1[nH]c2ccc(Cl)cc2c(NC2CN3CCC2CC3)c1-c1nc2ccccc2[nH]1 (stereo unspecified) [CHIR-124]	< 4.70

---

Target: UniProt Q8ID85
Assay: IC50 for competition of protein binding to Kinobeads
Settings: assay detail: Kinobeads competition in P. falciparum blood-stage lysate
pIC50: −log10 of the molar value.

compound	pIC50
O=c1[nH]c2ccc(Cl)cc2c(NC2CN3CCC2CC3)c1-c1nc2ccccc2[nH]1 (stereo unspecified)	< 4.70

---

Molecular target: UniProt Q8I1V0
Test: IC50 for competition of protein binding to Kinobeads
Conditions: assay detail: Kinobeads competition in P. falciparum blood-stage lysate

compound	IC50
O=c1[nH]c2ccc(Cl)cc2c(NC2CN3CCC2CC3)c1-c1nc2ccccc2[nH]1 (stereo unspecified)	> 20 µM

---

Target: UniProt Q8I4V7
Test: IC50 for competition of protein binding to Kinobeads
Settings: assay detail: Kinobeads competition in P. falciparum blood-stage lysate
pIC50: −log10 of the molar value.
recorded.metric: pIC50

compound	test.result
O=c1[nH]c2ccc(Cl)cc2c(NC2CN3CCC2CC3)c1-c1nc2ccccc2[nH]1 (stereo unspecified)	< 4.70

---

Target: UniProt Q8IDW1
Assay: IC50 for competition of protein binding to Kinobeads
Conditions: assay detail: Kinobeads competition in P. falciparum blood-stage lysate

molecule	IC50
O=c1[nH]c2ccc(Cl)cc2c(NC2CN3CCC2CC3)c1-c1nc2ccccc2[nH]1 (stereo unspecified)	> 20 µM

---

Biological target: UniProt Q8I5M2
Test: IC50 for competition of protein binding to Kinobeads
Settings: assay detail: Kinobeads competition in P. falciparum blood-stage lysate
pIC50: −log10 of the molar value.

molecule	pIC50
O=c1[nH]c2ccc(Cl)cc2c(NC2CN3CCC2CC3)c1-c1nc2ccccc2[nH]1 (stereo unspecified)	< 4.70

---

Biological target: UniProt Q8IJW3
Assay: IC50 for competition of protein binding to Kinobeads
Details: assay detail: Kinobeads competition in P. falciparum blood-stage lysate
pIC50: −log10 of the molar value.

compound	pIC50
O=c1[nH]c2ccc(Cl)cc2c(NC2CN3CCC2CC3)c1-c1nc2ccccc2[nH]1 (stereo unspecified)	< 4.70
